Let's look at some compounds and their measured Solubility grading.
Method Summary: Solubility analysis in PBS (Analysis Method B)
Format: physicochemical
Run Conditions: pH 7.4
Square brackets hold non-standard residues; d marks the D form. Peptide text beside a SMILES is read from it. * marks the point of attachment. d2Nal = N[C@H](Cc1ccc2ccccc2c1)C(=O)O; pGlu = O=C1CC[C@@H](C(=O)O)N1; tBu = CC(C)(C)*
Readout Label: Solubility grading

CCNC(=O)[C@@H]1CCCN1C(=O)[C@H](CCCNC(=N)N)NC(=O)[C@H](Cc1c[nH]c2ccccc12)NC(=O)[C@@H](COC(C)(C)C)NC(=O)[C@H](Cc1c[nH]cn1)NC(=O)[C@H](CO)NC(=O)[C@H](Cc1c[nH]c2ccccc12)NC(=O)[C@H](Cc1c[nH]cn1)NC(=O)[C@@H]1CCC(=O)N1 [Compound 10] ([pGlu]HWSH[dS](tBu)WRP-NHEt)    1
CC(C)C[C@H](NC(=O)[C@@H](Cc1ccc2ccccc2c1)NC(=O)[C@H](Cc1c[nH]cn1)NC(=O)[C@H](CO)NC(=O)[C@H](Cc1c[nH]c2ccccc12)NC(=O)[C@H](Cc1c[nH]cn1)NC(=O)[C@@H]1CCC(=O)N1)C(=O)N[C@@H](Cc1ccc(O)cc1)C(=O)N1CCC[C@H]1C(=O)NCC(N)=O [Compound 28] ([pGlu]HWSH[d2Nal]LYPG-NH2)    2

----------
Measured Target: UniProt P30968
Sequence (P30968 whole entry): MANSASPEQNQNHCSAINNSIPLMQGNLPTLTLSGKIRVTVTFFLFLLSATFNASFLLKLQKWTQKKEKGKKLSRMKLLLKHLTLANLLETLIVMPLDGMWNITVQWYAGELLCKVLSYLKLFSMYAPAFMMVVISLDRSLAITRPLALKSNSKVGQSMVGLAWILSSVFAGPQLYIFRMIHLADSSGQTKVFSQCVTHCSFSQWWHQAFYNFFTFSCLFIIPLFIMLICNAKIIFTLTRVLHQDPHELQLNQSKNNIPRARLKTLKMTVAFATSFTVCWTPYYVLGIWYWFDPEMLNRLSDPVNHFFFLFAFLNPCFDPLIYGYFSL
Run Conditions: 1000.0
Square brackets hold non-standard residues; d marks the D form. Peptide text beside a SMILES is read from it. * marks the point of attachment. d2Nal = N[C@H](Cc1ccc2ccccc2c1)C(=O)O; pGlu = O=C1CC[C@@H](C(=O)O)N1; tBu = CC(C)(C)*
Let's look at some compounds and their measured GNRHR Stimulation at 1 μM.
Readout Label: GNRHR Stimulation at 1 μM (percentage)

CCNC(=O)[C@@H]1CCCN1C(=O)[C@H](CCCNC(=N)N)NC(=O)[C@H](Cc1c[nH]c2ccccc12)NC(=O)[C@@H](COC(C)(C)C)NC(=O)[C@H](Cc1ccc(O)cc1)NC(=O)[C@H](CO)NC(=O)[C@H](Cc1c[nH]c2ccccc12)NC(=O)[C@H](Cc1c[nH]cn1)NC(=O)[C@@H]1CCC(=O)N1 [Compound 8] ([pGlu]HWSY[dS](tBu)WRP-NHEt)    86
CCNC(=O)[C@@H]1CCCN1C(=O)[C@H](CCCNC(=N)N)NC(=O)[C@H](CC(C)C)NC(=O)[C@@H](COC(C)(C)C)NC(=O)[C@H](Cc1c[nH]cn1)NC(=O)[C@H](CO)NC(=O)[C@H](Cc1c[nH]c2ccccc12)NC(=O)[C@H](Cc1c[nH]cn1)NC(=O)[C@@H]1CCC(=O)N1 [Compound 6] ([pGlu]HWSH[dS](tBu)LRP-NHEt)    88
NC(=O)CNC(=O)[C@@H]1CCCN1C(=O)[C@H](Cc1ccc(O)cc1)NC(=O)[C@H](Cc1c[nH]c2ccccc12)NC(=O)[C@@H](Cc1ccc2ccccc2c1)NC(=O)[C@H](Cc1ccc(O)cc1)NC(=O)[C@H](CO)NC(=O)[C@H](Cc1c[nH]c2ccccc12)NC(=O)[C@H](Cc1c[nH]cn1)NC(=O)[C@@H]1CCC(=O)N1 [Compound 30] ([pGlu]HWSY[d2Nal]WYPG-NH2)    12
